What growth inhibition was measured for each of the following?
- PROCEDURE DETAILS: Restrictive medium S. cerevisiae growth inhibition, OD615, pilot screen of yeast lifespan reduction project, restrictive growth control (AID 706);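 note: modified DeaD lifespan yeast strain shifted to restrictive glucose medium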
- ASSAY SETUP: OD615, 48 h, at 10 µM, hits give high values
Answers are plain numbers, in %.

Consider the worked cases shown below.
CN(CC(=O)N1CCc2ccccc21)S(=O)(=O)c1cccc2cccnc12 : -2.55
O=C(O)C1CCCCN1S(=O)(=O)c1ccc(Cl)s1 (centres undefined) : 1.02
Cc1nc2ccc(N)cc2s1 : -13.4
C=CCSc1nc2c(c(=O)[nH]1)C(C(C)C)C(C#N)=C(N)O2 (centres undefined) : 1.47
CC1CCN(C(=O)c2cc(-c3ccccc3O)on2)CC1 : 9.11
CC(=O)NC(CCS(C)(=O)=O)C(=O)Nc1ccc(Cl)c(Cl)c1 (centres undefined) : -6.39
O=C(c1cc(-c2ccc(O)cc2)on1)N1CCCc2ccccc21 : 12.2
Cc1ccc(OS(=O)Nc2cccc3nccnc23)cc1 (centres undefined) : 13.2
N#CC1=C(N)SC(N)=C(C#N)C1C1CC=CCC1 (centres undefined) : -10.4
CC(C)N(C(=O)CN(C#N)c1nc(N(C)C)nc(N(C)C)n1)c1ccccc1 : -7.49

Go through the items and report each one's growth inhibition.
1. O=C(Nc1nc2c(s1)CCCC2)c1ccc(Br)o1
2. COCc1nnc(SCC(=O)Nc2cccc(Cl)c2C)n1-c1ccccc1
3. CCCC(=O)c1ccc(N2CCOCC2)c(F)c1
4. CCCCn1c(CCNC(=O)CC)nc2ccccc21
5. CCC(NC(=O)c1ccccc1NC(=O)c1ccco1)C(=O)O (centres undefined)
6. Cc1ccc(-c2nn3c(C)nnc3s2)cc1NC(=O)C(C)C
7. CCCCOC(=O)CSc1nnc(N)s1
8. CN1CCc2c(sc(NC(=O)c3ccc(S(=O)(=O)N4CCOCC4)cc3)c2C(N)=O)C1

1: -10.8; 2: -13; 3: -9.48; 4: -5.17; 5: -12.6; 6: 13.7; 7: -1.45; 8: -4.6

Go through the items and report each one's growth inhibition.
1. CCOC(=O)CC1C(=O)NCCN1C(=O)c1cc2c(=O)n3ccccc3nc2s1 (centres undefined)
2. CN1/C(=C/C=N/n2cnnc2)C(C)(C)c2ccccc21
3. CC1CC(C)CN(c2nc3c(c(=O)[nH]c(=O)n3C)n2CCSc2nc3ccccc3o2)C1 (centres undefined)
4. CC(=O)c1ccc2c3c(ccc(O)c13)CC2
5. COc1ccc(CC2CCOC2=O)cc1 (centres undefined)
6. COC(=O)c1ccc(C2C(C(=O)Nc3ccc(C)cc3C)=C(C)Nc3ncnn32)cc1 (centres undefined)

[0.575, -17.9, -7.3, 7.16, -8.8, 9.76]

----------
- PROCEDURE DETAILS: growth suppression of PTEN-deleted HCT116, pilot screen, cell-based, HCT116 clonal line, CellTiter-Glo (AID 824);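 note: 0% = 20 µM Hyamine control and 100% = vehicle cell control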
- ASSAY SETUP: 60 h, at 10 µM, hits give low values
Inconclusive results are not listed.
OUTCOME MEASURE: viability (%)
Numbers only, in %.

Consider the worked cases shown below.
O=C(Nc1scc(-c2cccs2)c1C(=O)O)c1cccs1 : 105
CCN1CCCC(NC(=O)c2scc3c2CCCC3)C1 (stereo unspecified) : 95.1
CC(=O)c1sc(N2C(=O)c3oc4ccccc4c(=O)c3C2c2ccc(C)o2)nc1C (stereo unspecified) : 94.3

Go through the items and report each one's viability.
1. Cn1c(NC(=O)c2cccs2)cc(=O)n(C)c1=O
2. CCCN(CCC)CCNC(=O)Cn1cnc2sc(C)c(S(=O)(=O)N3CCOCC3)c2c1=O
3. CN1CCN(c2ccccc2NC(=O)Cc2cn(C)c3ccccc23)CC1

[95.5, 98, 93.7]
